Assay: qHTS Assay for Lipid Storage Modulators in Drosophila S3 Cells;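 on cell number change: cells counted by Cell Tracker Red CMTPX staining in the red channel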
Settings: BODIPY lipid droplet fluorescence, 18-24 h, cells fed with added oleic acid; measured here: cell count max response
Excerpt: NIH Molecular Libraries Probe Production Centers Network [MLPCN] NIH Chemical Genomics Center [NCGC] […] Triacsin C (Sigma-Aldrich T-4540), an inhibitor of long-chain fatty acyl CoA synthetase that blocks synthesis of triglycerides, was used as a positive control for lipid under-storage. […] Fluorescence was detected by excitation of the fluorophores with a 488-nm laser on an Acumen Explorer (TTP Lab Tech). […] Cells were detected using channel 3 (575-640 nm) with 5-um width and 100-um depth filters. […]
Screen size: about 320,000 compounds; about 2,100 (0.66%) were called active. Not shown: some 53% with an inconclusive outcome. The sample as a whole holds a higher share of actives than the screen did.
Measured cell number change accompanies every entry in the list below.
Respond with the bare value in %.

{"compound": "Cc1ccsc1/C=C/c1n[nH]c(=O)c(C#N)c1C", "readout.unit": "%", "obs.value": 22.2}

Prompt line: Given COc1ccc(NC(=O)C2CCCN(S(=O)(=O)c3cccnc3)C2)c(OC)c1 (configuration not stated) , state its recorded cell number change.
Response line: 12.4

Prompt line: Given NCCNC[C@@H]1COC2(CCCCCCCCCCC2)O1 , state its recorded cell number change.
Response line: 6.45

Prompt line: Given O=C(Nc1nc(SCc2ccc(F)cc2)ns1)c1ccco1 , state its recorded cell number change.
Response line: -12.1

====

assay: qHTS Assay for Lipid Storage Modulators in Drosophila S3 Cells; settings: BODIPY lipid droplet fluorescence, 18-24 h, cells fed with added oleic acid; series mostly up to 46.1 µM
Among all 320,000 compounds or so, about 2,100 (0.66%) were called active. Another 53% or so got no clear call; they are omitted. Calls follow the shape of the dose curve; as a rule, active = well fitted inhibition curve with a large enough effect in the signal ratio, with a control signal flat (not every such curve was filed as active); inconclusive = small, poorly fitted or top-dose-only effect, or effect the other way, or a change in a side signal; inactive = flat fitted curve, though single readings scatter; the % refers to the signal ratio. For the sample, actives were picked, then their nearest neighbours and some compounds at random.
Please state which outcome applies, choosing from active, inactive

Prompt line: Assay result, entry COC(=O)c1ccc(CSc2nnc(N)s2)cc1 — outcome?
Response line: inactive

Prompt line: Assay result, entry CCNc1nc(N)nc(-c2cc(Cl)ccc2OC)n1 — outcome?
Response line: active

Prompt line: Assay result, entry CC(=O)Nc1cc(NC(C)=O)cc(C(=O)OCC(=O)N2CC(C)OC(C)C2)c1 (configuration not stated) — outcome?
Response line: active

Prompt line: Assay result, entry CC(=O)NC(c1cccs1)c1cc(Br)c2cccnc2c1O (configuration not stated) — outcome?
Response line: inactive

Prompt line: Assay result, entry CCc1ccc(S(=O)(=O)N(C(=O)c2ccncc2)c2ccc(OC(=O)c3ccncc3)cc2)cc1 — outcome?
Response line: active

Prompt line: Assay result, entry Cc1cc(NS(=O)(=O)c2ccc3c(c2)OCCO3)no1 — outcome?
Response line: inactive

Prompt line: Assay result, entry Cc1ccsc1/C=N/n1cnnc1 — outcome?
Response line: inactive

Prompt line: Assay result, entry CCn1c(CCNC(=O)c2ccc(Cl)cc2)n[nH]c1=S — outcome?
Response line: active

Prompt line: Assay result, entry CCn1c(CCNC(=O)c2ccc(C)cc2)n[nH]c1=S — outcome?
Response line: inactive

Prompt line: Assay result, entry Cc1cccc(-c2nnc(SCC(=O)O)n2Cc2ccccc2)c1 — outcome?
Response line: inactive

Prompt line: Assay result, entry Cc1cc(N2CCN(S(=O)(=O)Cc3ccccc3)CC2)n2ncnc2n1 — outcome?
Response line: inactive

Prompt line: Assay result, entry CCCCn1c(-c2ccsc2)nc2c1c(=O)[nH]c(=O)n2CCC — outcome?
Response line: inactive

Prompt line: Assay result, entry CCOc1ccc(C(=O)OCC(=O)N2CC(C)OC(C)C2)cc1OCC (configuration not stated) — outcome?
Response line: inactive

Prompt line: Assay result, entry CCc1ccc(C(=O)c2oc3nc(C)cc(C)c3c2N)cc1 — outcome?
Response line: active

Prompt line: Assay result, entry COc1ccc(C(=O)OC(C(=O)c2ccccc2)c2ccccc2)cc1 (configuration not stated) — outcome?
Response line: inactive

Prompt line: Assay result, entry CNc1cccc2c1C(=O)c1ccccc1C2=O — outcome?
Response line: active

Prompt line: Assay result, entry Cc1ccc(C(=O)c2oc3nc(C)cc(C)c3c2N)cc1 — outcome?
Response line: inactive

Prompt line: Assay result, entry CC1CN(C(=O)COC(=O)c2ccc(NC(=O)CC#N)cc2)CC(C)O1 (configuration not stated) — outcome?
Response line: inactive

====

assay: qHTS Assay for Lipid Storage Modulators in Drosophila S3 Cells; conditions: BODIPY lipid droplet fluorescence, 18-24 h, cells fed with added oleic acid; measured here: cell count max response;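 on cell number change: cells counted by Cell Tracker Red CMTPX staining in the red channel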
About 2,100 (0.66%) of roughly 320,000 compounds were called active. Inconclusive results (about 53%) are left out. For the sample, actives were picked, then their nearest neighbours and some compounds at random.
parameter.measured: cell number change (%)
Respond with the bare value in %.

Answered cases to consult:
{"compound": "Nc1nonc1-n1nnc(C(=O)N/N=C/c2ccoc2)c1-c1ccccc1", "obs.value": 11.3}
{"compound": "CCN(CC)S(=O)(=O)c1ccc(OC)c(NC(=O)C2CC(=O)N(c3ccc4c(c3)OCCO4)C2)c1 (centres undefined)", "obs.value": -25.9}
{"compound": "Cc1c(Cl)cccc1NC(=S)N1CCC(N(C)CC2CCCO2)CC1 (centres undefined)", "obs.value": 7.58}
{"compound": "Cn1c(=O)c(C(=O)NNC(=O)c2ccc(Br)cc2)c(O)c2ccccc21", "obs.value": 12.5}
{"compound": "COc1ccc(Nc2ccc([N+](=O)[O-])cn2)cn1", "obs.value": -5.41}
{"compound": "CN1CCN(C2=NC(=O)/C(=C/c3ccccc3OS(=O)(=O)c3ccccc3)S2)CC1", "obs.value": 6.94}

Prompt line: Given CC1(C)Cc2c(sc3ncnc(NN)c23)CO1 , state its recorded cell number change.
Response line: 28.8

Prompt line: Given CCCn1c(C)cc(C(=O)COc2ccc(C)nc2[N+](=O)[O-])c1C , state its recorded cell number change.
Response line: 5.33

Prompt line: Given Cc1cccc(C)c1NC(=S)N1CCC(N(C)CC2CCCO2)CC1 (centres undefined) , state its recorded cell number change.
Response line: -14.4

Prompt line: Given COc1ccccc1Cn1c(C(C)C)nc2ccccc21 , state its recorded cell number change.
Response line: 8.07

Prompt line: Given COc1ccc(S(=O)(=O)N2CCOC2CNC(=O)C(=O)NCc2ccncc2)cc1 (centres undefined) , state its recorded cell number change.
Response line: -15.1

Prompt line: Given COc1ccnc(Oc2cc(Cl)cc(Cl)c2)c1C#N , state its recorded cell number change.
Response line: 16.7

Prompt line: Given Cc1ccc(NC(=S)N2CCC(N(C)CC3CCCO3)CC2)cc1C (centres undefined) , state its recorded cell number change.
Response line: 5.03

Prompt line: Given CC(=O)NC1=NN(C(C)=O)C(C)(CS(=O)(=O)c2ccc(Cl)cc2)S1 (centres undefined) , state its recorded cell number change.
Response line: -3.99

Prompt line: Given Cc1cc(C)cc(NC(=S)N2CCC(N(C)CC3CCCO3)CC2)c1 (centres undefined) , state its recorded cell number change.
Response line: 11.9

Prompt line: Given CN(Cc1ccccc1)c1nc2c(c(=O)[nH]c(=O)n2C)n1C , state its recorded cell number change.
Response line: -14.1

Prompt line: Given O=C(CSc1nc(-c2ccc(F)cc2)nc2c1Cc1ccccc1O2)Nc1ccc(C(=O)O)cc1 , state its recorded cell number change.
Response line: -7.56

Prompt line: Given CC(C)C(=O)N1CCN(c2ccccc2NC(=O)COc2ccccc2)CC1 , state its recorded cell number change.
Response line: -6.41

Prompt line: Given CCOC(=O)C1CCCN(S(=O)(=O)c2ccc(Br)s2)C1 (centres undefined) , state its recorded cell number change.
Response line: -14.8

Prompt line: Given O=c1[nH]c2ccccc2nc1Cc1ccc(Cl)cc1 , state its recorded cell number change.
Response line: 6.67

Prompt line: Given CCC1CCCCN1C(=O)CNCC1CCCO1 (centres undefined) , state its recorded cell number change.
Response line: 14.6

Prompt line: Given Cc1ccc(NC(=S)N2CCC(N(C)CC3CCCO3)CC2)cc1 (centres undefined) , state its recorded cell number change.
Response line: 14.9

====

assay: qHTS Assay for Lipid Storage Modulators in Drosophila S3 Cells; settings: BODIPY lipid droplet fluorescence, 18-24 h, cells fed with added oleic acid; series mostly up to 46.1 µM
In all, about 320,000 compounds went through this assay and about 2,100 (0.66%) were called active. About 53% were inconclusive and are not listed. The full list was thinned out, with actives kept by preference.
parameter.measured: outcome

{"compound": "CC(NC(=O)CN(C1CCCCC1)S(C)(=O)=O)c1ccccc1 (centres undefined)", "parameter.measured": "outcome", "obs.value": "inactive"}
{"compound": "COc1ccc(C)cc1S(=O)(=O)N1CCCCC1", "parameter.measured": "outcome", "obs.value": "inactive"}
{"compound": "N=c1c(C(=O)NCCN2CCOCC2)cc2c(=O)n3ccccc3nc2n1CCc1ccccc1", "parameter.measured": "outcome", "obs.value": "inactive"}
{"compound": "CC(=O)Oc1ccc(N2C(=O)[C@@H]3[C@H](C2=O)[C@H]2c4ccccc4C=NN2[C@@H]3C(C)=O)cc1", "parameter.measured": "outcome", "obs.value": "inactive"}
